# subjectOfTest: PRMT5/MEP50 (Homo sapiens)
# Sequence (O14744 whole entry): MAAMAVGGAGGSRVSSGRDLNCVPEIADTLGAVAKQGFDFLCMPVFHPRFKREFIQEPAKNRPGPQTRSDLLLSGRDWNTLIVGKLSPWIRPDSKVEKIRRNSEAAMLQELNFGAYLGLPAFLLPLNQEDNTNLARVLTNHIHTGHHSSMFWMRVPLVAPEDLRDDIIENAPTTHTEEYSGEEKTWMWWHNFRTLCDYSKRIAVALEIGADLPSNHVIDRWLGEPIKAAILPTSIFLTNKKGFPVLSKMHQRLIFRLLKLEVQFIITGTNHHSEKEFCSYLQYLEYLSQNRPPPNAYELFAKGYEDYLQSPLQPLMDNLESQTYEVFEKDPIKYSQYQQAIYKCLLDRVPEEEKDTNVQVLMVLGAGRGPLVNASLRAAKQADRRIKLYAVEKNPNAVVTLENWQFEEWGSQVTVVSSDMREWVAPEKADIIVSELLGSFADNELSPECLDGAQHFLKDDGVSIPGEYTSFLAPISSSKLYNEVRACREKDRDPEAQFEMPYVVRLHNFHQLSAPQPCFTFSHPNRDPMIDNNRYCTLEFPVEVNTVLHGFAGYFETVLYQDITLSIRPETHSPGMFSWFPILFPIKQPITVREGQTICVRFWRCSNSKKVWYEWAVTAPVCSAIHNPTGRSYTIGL
# Sequence (Q9BQA1 whole entry partner): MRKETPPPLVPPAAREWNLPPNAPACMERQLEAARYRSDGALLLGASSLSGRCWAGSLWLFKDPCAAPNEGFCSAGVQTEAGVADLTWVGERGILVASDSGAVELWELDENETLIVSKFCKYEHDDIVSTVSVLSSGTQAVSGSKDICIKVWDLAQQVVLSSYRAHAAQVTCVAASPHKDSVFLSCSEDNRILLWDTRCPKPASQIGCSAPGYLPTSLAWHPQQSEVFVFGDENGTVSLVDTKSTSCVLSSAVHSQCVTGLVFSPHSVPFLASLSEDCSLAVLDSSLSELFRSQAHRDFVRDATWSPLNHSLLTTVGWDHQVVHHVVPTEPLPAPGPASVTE
# assayMethodText: MTase-Glo methyl transferase assay, Method A (Histone H4 peptide, 1 µM MTA, 24 h pre-incubation)
# Format: biochemical
# Design: made in house
# recordedConditions: read-out: PRMT5 MTase Glo Ki (nM, Meth. A)
observable: Ki (nM)

Sample records with Ki:
Cc1cc2cc(C(=O)N(Cc3cnc(C(F)(F)F)cn3)[C@H](C)c3ncccn3)ccc2nc1N (single isomer, unassigned) : 0.27
Cc1cc2cc(C(=O)N(Cc3ncc(Br)cc3C)[C@H](C)c3ncccn3)ccc2nc1N (single isomer, unassigned) : 0.04
Cc1cc2cc(C(=O)N(Cc3ccc(C(F)F)cn3)[C@@H]3CCC[C@H]3O)ccc2nc1N : 0.18
Cc1cc2cc(C(=O)N(Cc3ccc(C4=CCOCC4)nn3)[C@H](C)c3ncccn3)ccc2nc1N : 0.002

1: COC(=O)c1ccc(CN(Cc2ncccc2F)C(=O)c2ccc3nc(N)c(C)cc3c2)nc1
2: Cc1cc2cc(C(=O)N(Cc3ccc(C(F)F)cn3)[C@H](C)c3ncccn3)ccc2nc1N
3: C[C@H](c1nccs1)N(Cc1ccc(Br)nn1)C(=O)c1ccc2nc(N)c(Br)cc2c1
4: Cc1cc2cc(C(=O)N(Cc3ccc(C(F)(F)F)cn3)CC(F)(F)F)ccc2nc1N
5: Cc1cc2cc(C(=O)N(Cc3ccc(NCC(F)(F)F)nn3)[C@H](C)c3ncccn3)ccc2nc1N
Provide the items ranked by increasing Ki. # output: labels, in the requested order
5, 3, 1, 2, 4
(5: 0.04 nM, 3: 0.08 nM, 1: 0.13 nM, 2: 0.73 nM, 4: 6.87 nM)

1: Cc1cc(N)nc2ccc(C(=O)N(Cc3ccc(C(F)(F)F)cn3)[C@H](C)c3ncccn3)cc12
2: COC[C@H](c1ccccn1)N(Cc1ccc(C(F)(F)F)cn1)C(=O)c1ccc2nc(N)c(C)cc2c1 (single isomer, unassigned)
Which shows the larger Ki value: 1 or 2 ? API: response body contains the label of the selected item.
1
(1: 0.57 nM, 2: 0.18 nM)
